- Test system: SF-295 CNS
- method_description: NCI-60 one-dose screen, 48 h (100 = growth as untreated, 0 = no growth, -100 = all killed)
- applied_conditions: 10 µM unless noted
- Method: Cells are grown in 96 well plates and exposed to the test compound for 48 hours. Compounds are tested at a single concentration, which is 10^-5 M for most compounds. The reported endpoint is percent growth (GI% or GIPRCNT), where numbers from 0 - 100% represent growth inhibition, and numbers from -100% - 0 represent cell death. For example, a value of 40 represents 60% growth inhibition. A value of 0 means no net growth occurred over the course of the experiment. […]
Compounds without any hit were thinned out: in the full panel of roughly 83,000, 20% have a hit.
Returns Criterion met if the recorded growth is greater than or equal to 10%, and Criterion not met otherwise.

{"molecule": "COc1cc(/C=C/C(=O)/C=C/c2cc3ccc(Cl)cc3n(Cc3ccccc3)c2=O)ccc1O", "assigned_category": "Criterion not met"}
{"molecule": "Cc1ccc2nc3nc4ccc[nH]c4cc3c2c1", "assigned_category": "Criterion met"}
{"molecule": "CCC1=C[C@H]2CN(CCc3c([nH]c4ccccc34)[C@@](C(=O)OC)(c3cc4c(cc3OC)N(C)[C@H]3[C@@](O)(C(=O)OC)[C@H](OC(C)=O)[C@]5(CC)[C@@H]6C[C@@H]6CN6CC[C@]43[C@@H]65)C2)C1", "assigned_category": "Criterion met"}

Now turn to the next molecule.
Can CN1CC=C(c2cc(NC(=O)Nc3ccc(Oc4ccnc(NC(=O)C5CC5)c4)c(F)c3)cc(C(F)(F)F)c2)CC1 be said to have growth at or above 10%? Criterion not met

----------
- Tested on: RPMI-8226 leukemia
- method_description: NCI-60 one-dose screen, 48 h (100 = growth as untreated, 0 = no growth, -100 = all killed)
- applied_conditions: 10 µM unless noted
- Experimental: Growth inhibition of the RPMI-8226 human tumor cell line is measured as a screen for anti-cancer activity. Cells are grown in 96 well plates and exposed to the test compound for 48 hours. Compounds are tested at a single concentration, which is 10^-5 M for most compounds. The reported endpoint is percent growth (GI% or GIPRCNT), where numbers from 0 - 100% represent growth inhibition, and numbers from -100% - 0 represent cell death. For example, a value of 40 represents 60% growth inhibition. […]
The panel holds about 83,000 compounds, 20% with a hit somewhere; the sample as a whole holds those more often.
Class Satisfied: growth at least 20%. Class Not satisfied: growth below 20%.

Completed entries (count: 5):
{"molecule": "O=c1[nH]nc(-c2ccccc2)c2sc(NC(=S)Nc3ccc(Cl)cc3)nc12", "assigned_category": "Satisfied"}
{"molecule": "O=C1CC23OC(C(O)c4ccccc4N12)C1C(c2ccccc2)=NOC13 (stereo not given)", "assigned_category": "Satisfied"}
{"molecule": "O=C1c2ccccc2C(=O)c2c1oc1c2c(=O)[nH]c2ccc(Cl)cc21", "assigned_category": "Not satisfied"}
{"molecule": "N#CC1(C#N)C2=C(CCCC2)NC(c2c(F)cccc2Cl)C1(C#N)C#N (stereo not given)", "assigned_category": "Satisfied"}
{"molecule": "NS(=O)(=O)c1ccc(-n2nc(-c3ccccc3)ccc2=O)cc1", "assigned_category": "Satisfied"}

Would you say S=c1ssnc1-c1cc2ccccc2o1 shows growth at minimum 20%? Satisfied

For this molecule, is measured growth 20% or higher? COc1cc2c(cc1OCCCOc1cc3c(cc1OC)C(=O)N1CC(F)(F)C[C@H]1C=N3)N=C[C@@H]1CC(F)(F)CN1C2=O Not satisfied

Quick check: does COc1ccc(Cc2nc(C#N)c(N3CCN(c4ccc(F)cc4)CC3)o2)cc1 have growth greater than or equal to 20%? Satisfied

Determine whether this molecule has growth no lower than 20%: CCOc1ccccc1C(=O)/C=C/c1cc2ccccc2[nH]c1=O Not satisfied

Kindly determine if growth recorded for Cc1cc(C)c(NC(=O)c2sc3nc4c(cc3c2N)CCCCCC4)c(C)c1 is above or exactly 20%. Satisfied

----------
- Test system: IGROV1 ovarian
- method_description: NCI-60 one-dose screen, 48 h (100 = growth as untreated, 0 = no growth, -100 = all killed)
- applied_conditions: 10 µM unless noted
- Experimental: Growth inhibition of the IGROV1 human tumor cell line is measured as a screen for anti-cancer activity. Cells are grown in 96 well plates and exposed to the test compound for 48 hours. Compounds are tested at a single concentration, which is 10^-5 M for most compounds. The reported endpoint is percent growth (GI% or GIPRCNT), where numbers from 0 - 100% represent growth inhibition, and numbers from -100% - 0 represent cell death. For example, a value of 40 represents 60% growth inhibition. […]
About 83,000 compounds went through this panel and 20% of them were active in at least one assay; those are over-represented in the sample as a whole.
Measured growth accompanies every entry in the list below.
Your answer should be a plain number; it is taken to be in %.

Solved cases (2 shown):
{"molecule": "COC(=O)/C=C/c1cc(OC(C)=O)c2c(c1)C(C(=O)OC)C(c1ccc(OC(C)=O)c(OC(C)=O)c1)O2 (centres undefined)", "subject_of_test": "IGROV1 ovarian", "growth, %": 20.1}
{"molecule": "CCCCOc1nc2ccc(C)cc2cc1/C=C/C(=O)/C=C/c1ccc2c(c1)OCO2", "subject_of_test": "IGROV1 ovarian", "growth, %": 90.3}

With IGROV1 ovarian as the test system, provide measured growth for this molecule: COc1ccc([C@H]2[C@@H](F)C(=O)N2c2cc(OC)c(OC)c(OC)c2)cc1F 31.9

Give growth for this entry on IGROV1 ovarian: O=C(CCc1nnc2sc(OCc3ccccc3)nn12)c1nc2ccc([N+](=O)[O-])cc2[nH]1 93.8

Give the observed growth of CC1CCN(CCCCCOc2ccc3oc4ccccc4c(=O)c3c2)CC1 for IGROV1 ovarian. 68.9

Fill: growth (IGROV1 ovarian) for this molecule C=C1C(=O)O[C@H]2[C@H]1CCC(/C=N/c1ncc(Br)cc1N)=C\CC[C@@]1(C)O[C@@H]21 -1.81

Look up and report growth, with IGROV1 ovarian as system, for O=C1NC(SCc2ccc(F)cc2)=N/C1=C/c1cccc(OCc2ccc(Cl)cc2)c1 26.6

Give measured growth for CC(=O)Nc1nc2c(c(N)c1C#N)C(c1cccc(Cl)c1)C1=C(CCCC1=O)N2c1sc2c(c1C#N)CCCC2 (centres undefined) (IGROV1 ovarian). 59.4

Give reported growth for Oc1ccccc1-c1nc2c3ccccc3c3ccccc3c2o1 (IGROV1 ovarian) 74.1

----------
- System: IGROV1 ovarian
- method_description: NCI-60 one-dose screen, 48 h (100 = growth as untreated, 0 = no growth, -100 = all killed)
- applied_conditions: 10 µM unless noted
- Method: Growth inhibition of the IGROV1 human tumor cell line is measured as a screen for anti-cancer activity. Cells are grown in 96 well plates and exposed to the test compound for 48 hours. Compounds are tested at a single concentration, which is 10^-5 M for most compounds. The reported endpoint is percent growth (GI% or GIPRCNT), where numbers from 0 - 100% represent growth inhibition, and numbers from -100% - 0 represent cell death. For example, a value of 40 represents 60% growth inhibition. […]
The panel holds about 83,000 compounds, 20% with a hit somewhere; the sample as a whole holds those more often.
Recorded growth by entry
Give the value, in units of %, as a plain number.

Check IGROV1 ovarian data and give growth for N#Cc1c(-c2ccc(F)cc2)c(C#N)c2c(C#N)c(N)nn2c1N . 80.9

Look up and report growth, with IGROV1 ovarian as system, for CC(=O)[C@@H]1CC[C@]2(C(=O)O)CC[C@]3(C)[C@H](CC[C@@H]4[C@@]5(C)Cc6c([nH]c7ccccc67)C(C)(C)[C@@H]5CC[C@]43C)[C@@H]12 86.8

Send back IGROV1 ovarian growth of COc1ccc2nc(-c3ccc(OC)c(OC)c3)cc(-c3nnc(SCC(=O)Nc4ccc(C(C)=O)cc4)o3)c2c1 only. 113

Output reported growth of the compound O=C(O)c1cn(C2CC2)c2cc(N3CCN(Cc4nnc(Nc5ccccc5)o4)CC3)c(F)cc2c1=O on IGROV1 ovarian. 95.9

Report growth on IGROV1 ovarian for this entry: CC(=O)c1c(OCC#N)ccc2c(C)cc(=O)oc12 116

Please look at Cc1ccc(CS/C(=C\c2ccc([N+](=O)[O-])cc2)C(=O)c2ccc(F)cc2)cc1 and tell me its recorded growth on IGROV1 ovarian. 58.5

Please respond with reported growth (system IGROV1 ovarian) for S=C(Nc1ccccc1)c1ccccn1 . 1.38

----------
- System: NCI-H460 lung
- method_description: NCI-60 one-dose screen, 48 h (100 = growth as untreated, 0 = no growth, -100 = all killed)
- applied_conditions: 10 µM unless noted
Compounds without any hit were thinned out: in the full panel of roughly 83,000, 20% have a hit.
Values of growth greater than or equal to 60% map to Y; values below map to N.

Take a look at these entries with their results.
{"compound": "COc1c(O)cc2oc3cc(O[C@@H]4OC(C)[C@@H](O)[C@H](O)C4O)c(CC=C(C)C)c(O)c3c(=O)c2c1CC=C(C)C (some centres undefined)", "assigned_category": "Y"}
{"compound": "C=CCn1c(SCC(=O)Nc2ccc(C(=O)/C=C/c3cc(OC)c(OC)c(OC)c3)cc2)nnc1-c1ccc(Cl)cc1", "assigned_category": "N"}
{"compound": "O=C(NCc1ccccc1)c1ccc2c(c1)NC(=O)[C@@H]1CCCN21", "assigned_category": "Y"}
{"compound": "C=C(C)[C@@H]1CC[C@]2(C(N)=O)CC[C@]3(C)[C@H](CC[C@@H]4[C@@]5(C)CCCNC(C)(C)[C@@H]5CC[C@]43C)[C@@H]12", "assigned_category": "Y"}
{"compound": "C=C(C)[C@@H]1CC[C@]2(C(=O)O)CC[C@]3(C)[C@H](CC[C@@H]4[C@@]5(C)C[C@@H](CC#Cc6ccc(Cl)cc6)C(=O)C(C)(C)[C@@H]5CC[C@]43C)[C@@H]12", "assigned_category": "N"}

Please tell me: is the compound Cn1cc(-c2ccc3c(c2)ncn3-c2ccc(CC(=O)Nc3cc(C(C)(C)C)on3)cc2)cn1 at or over 60% in terms of growth? N

Hi, just wondering whether CN(CCC#N)C(=O)Nc1ccccc1 shows growth of 60% or higher. Y

Textbook exercise: given the entry Cc1nccc2c3ccc(OCc4cn(-c5ccc(Cl)cc5)nn4)cc3n(CC(C)C)c12 , state whether its growth is greater than or equal to 60%. N

Check if growth >= 60% (inclusive). Item: Cc1ccc(C(=O)O)o1 Y
